Where do the numbers come from? From PubChem BioAssay (NCI).

- Tested on: NCI-H322M lung
- measurementNotes: NCI-60 one-dose screen, 48 h (100 = growth as untreated, 0 = no growth, -100 = all killed)
- recordedConditions: 10 µM unless noted
Compounds without any hit were thinned out: in the full panel of roughly 83,000, 20% have a hit.
readoutName: growth (%)
Reply with just the number (in %).

Reference set, count: 6
{"compound": "CCC1=C[C@@H]2CN(C1)Cc1c([nH]c3ccccc13)[C@@](C(=O)OC)(c1cc3c(cc1OC)N(C=O)[C@H]1[C@@](O)(C(=O)OC)[C@H](OC(C)=O)[C@]4(CC)[C@@H]5C[C@@H]5CN5CC[C@]31[C@@H]54)C2", "outputUnit": "%", "growth": 48.8}
{"compound": "CCN(Cc1ccc(CN(CC)C(=O)C(Br)Br)cc1)C(=O)C(Br)Br", "outputUnit": "%", "growth": 26.3}
{"compound": "COc1ccc(Cn2cc(COc3cc(/C=C/C(=O)c4cc(OC)c(OC)c(OC)c4)ccc3OC)nn2)cc1", "outputUnit": "%", "growth": 52.4}
{"compound": "COc1ccc2c(c1)C(C)Cc1c(N(C)C)ncnc1N2C (centres undefined)", "outputUnit": "%", "growth": 53.9}
{"compound": "CCCCCCCCCCCCCCCCC(Br)C(=O)O (centres undefined)", "outputUnit": "%", "growth": 115}
{"compound": "CN(C)c1ccc(-c2ccc(-c3ccc(C(=N)N)cn3)o2)cc1", "outputUnit": "%", "growth": -0.109}

Please report the recorded growth for CCC(c1ccc(OC)cc1)C(CC)c1ccc(OCC[N+](C)(C)C)cc1 (centres undefined) .
89.6

Please report the recorded growth for CCCC1OC(c2ccc(C(C)C)cc2)OCC1CC (centres undefined) .
98

Please report the recorded growth for `CCSc1nnc(NC(=O)COc2ccc(Cl)cc2C)s1` .
120

Please report the recorded growth for `Nc1c(C(=O)Nc2cccc(C(F)(F)F)c2)sc2nc3c(cc12)CCCCCC3` .
10.6

Please report the recorded growth for `CCOC(=O)[C@H](CSSc1ncnc2cc[nH]c12)NC(=O)[C@@H](C)c1ccc2cc(OC)ccc2c1` .
10.7

Please report the recorded growth for `COc1ccc(/C=C/C(=O)c2cccc(B(O)O)c2)cc1O` .
64
